The reported measurements were obtained from patent US20260007758A1.

Each entry below lists one item and its recorded EC50 value.
# Study system: SST2 (Homo sapiens, UniProt P30874)
# Construct: host or cells: PathHunter CHO-K1 SST2 cells
# Sequence (P30874 whole entry): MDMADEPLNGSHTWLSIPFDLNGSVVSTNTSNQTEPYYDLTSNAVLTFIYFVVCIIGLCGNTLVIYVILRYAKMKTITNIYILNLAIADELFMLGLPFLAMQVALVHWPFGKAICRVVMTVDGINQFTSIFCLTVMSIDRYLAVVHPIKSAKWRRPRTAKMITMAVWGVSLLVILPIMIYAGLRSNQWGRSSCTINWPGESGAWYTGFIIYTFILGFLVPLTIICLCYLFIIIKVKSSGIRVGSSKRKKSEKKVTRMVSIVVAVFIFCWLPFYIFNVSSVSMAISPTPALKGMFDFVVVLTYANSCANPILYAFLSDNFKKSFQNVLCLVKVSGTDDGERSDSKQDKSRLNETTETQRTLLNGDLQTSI
# Protocol notes: PathHunter CHO-K1 SST2 Internalization Assay
# Type: cell-based
# Reported conditions: PathHunter CHO-K1 SST2 cells; 90 min at 37 C; luminescence; read-out: Internalization EC50
Property label: EC50 (nM)

- Molecule: "CC[C@H](C)[C@@H]([C@@H](CC(=O)N1CCC[C@H]1[C@H](OC)[C@@H](C)C(=O)N[C@H](C)[C@@H](O)c1ccccc1)OC)N(C)C(=O)[C@@H](NC(=O)[C@H](C(C)C)N(C)C(=O)OCc1ccc(NC(=O)[C@H](CCCNC(N)=O)NC(=O)[C@@H](NC(=O)C[C@@H](N)C(=O)NCCOCCC(=O)NCCNc2ncc(-c3cc(C)cc(F)c3)c(N3CCC(N)CC3)c2-c2nc3ccc(Cl)cc3[nH]2)C(C)C)c(O[C@@H]2O[C@H](C(=O)N[C@@H](CCCCNC(=O)CCCCc3ccc(I)cc3)C(=O)O)[C@@H](O)[C@H](O)[C@H]2O)c1)C(C)C [Compound 211]"
  Reading: 3.2
- Molecule: "CC[C@H](C)[C@@H]([C@@H](CC(=O)N1CCC[C@H]1[C@H](OC)[C@@H](C)C(=O)N[C@H](C)[C@@H](O)c1ccccc1)OC)N(C)C(=O)[C@@H](NC(=O)[C@H](C(C)C)N(C)C(=O)OCc1ccc(NC(=O)[C@H](C)NC(=O)[C@@H](NC(=O)CCOCCC(=O)N(C)CC(=O)NCCNc2ncc(-c3cc(C)cc(F)c3)c(N3CCC(N)CC3)c2-c2nc3ccc(Cl)cc3[nH]2)C(C)C)c(O[C@@H]2O[C@H](C(=O)NCCO)[C@@H](O)[C@H](O)[C@H]2O)c1)C(C)C [Compound 206]"
  Reading: 4.5
